Taken from paper PMC5540273.

# Test system: AURKB
# measurementContext: concentration: 1 μM, replicates: in singlicate; n = 1;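 also: KINOMEscan kinase panel screen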
# %Inh listing for each entry below
endpointName: %Inh (%)

compoundStructureString	targetOfAssay	endpointName	valueReported
COc1ccc(NC(=O)c2ccoc2)cc1-c1ccc(C(=O)NCC2CC2)cc1	AURKB	%Inh	33
Cc1ccc(NC(=O)c2cccc(N3CCCCC3)c2)cc1-c1ccc(C(=O)NCC2CC2)cc1	AURKB	%Inh	0
Cc1ccc(O)cc1Nc1ccnc2ccc(C(C)(C)C)cc12	AURKB	%Inh	36
CCOc1nccc(-c2c(-c3ccc(F)cc3)ncn2C2CCNCC2)n1	AURKB	%Inh	59

* * *

# System: CSK
# measurementContext: concentration: 1 μM, replicates: in singlicate; n = 1
Hi! Just check whether %Inh is below 7%. Below gives Criterion met, equal or above gives Criterion not met.

molecule	assignedClass
Cc1ccc(NC(=O)c2ccnc(N3CCCCC3)c2)cc1-c1ccc(C(=O)NCC2CC2)cc1 [GW775610]	Criterion met
O=C(O)C(F)(F)F.O=c1[nH]ccc2nc(N[C@@H]3CCNC3)nc(Nc3cc(Cl)cc(Cl)c3)c12 [GSK2188764]	Criterion not met
CCNc1nccc(-c2c(-c3ccc(F)cc3)ncn2C2CCN(C)CC2)n1	Criterion not met
O=C(Nc1n[nH]c2nc(-c3ccccc3)ccc12)C1CC1 [SB-708999]	Criterion met
COc1ccc(C2=C(Nc3cccc(O)c3)C(=O)NC2=O)cc1 [SB-390766]	Criterion not met
CC(C)(C)c1ccc(C(=O)Nc2cn3cc(-n4ccnc4)ccc3n2)cc1	Criterion met
COc1cccc(C2=C(Nc3cccc(O)c3)C(=O)NC2=O)c1 [SB-390771]	Criterion not met
CCn1cnc2c(NCc3ccccc3)ncnc21 [SKF-96418]	Criterion met
CN(C)CCNS(=O)(=O)c1ccc(-c2ccnc3[nH]ccc23)cc1 [GSK977620]	Criterion met

* * *

# Tested on: RAF1
# measurementContext: concentration: 1 μM, replicates: in singlicate; n = 1
endpointName: %Inh (%)

molecule	valueReported
CC(C)(C)c1ccc(C(=O)Nc2cn3cc(-n4ccnc4)ccc3n2)cc1	10
O=C(O)C(F)(F)F.O=c1[nH]ccc2nc(N[C@@H]3CCNC3)nc(Nc3ccc4c(c3)S(=O)(=O)CC4)c12 [GSK2181306]	0
Cc1ccc(-c2ccc3occ(-c4ccc(S(C)=O)cc4)c3c2)nn1 (stereo not shown)	6
COc1cccc(CC(=O)N2CCc3cc(-c4cn(C)c5ncnc(N)c45)ccc32)c1 [GSK2608899]	0
O=C(Nc1c(F)cccc1F)c1cc(C(=O)c2ccccc2F)c[nH]1 [GSK1326180]	6
Cc1ccc(C)c(NC(=O)Nc2ccc(C)c(-c3ccc(C(=O)Nc4ccncc4)cc3)c2)c1 [GSK1398473]	89
Fc1cc(Cl)ccc1Nc1ccnc2cc(-c3ccc(CN4CCOCC4)o3)ccc12 [GW560109]	11
Cc1ccc(O)cc1Nc1ccnc2cc(-c3ccc(CN4CCCCC4)o3)ccc12 [GW557777]	7
CC(C)c1nc(-c2cccc(NS(=O)(=O)c3c(F)cccc3F)c2)c(-c2ccnc(Nc3ccc(N4CCOCC4)nc3)n2)s1.Cl [GSK1723980]	99.4
COC(=O)Nc1nc2ccc(Oc3ccc(CC(=O)Nc4cc(C(F)(F)F)ccc4F)cc3)cc2[nH]1 [GW680903]	86
CNc1nccc(-c2ccc3c(N)n[nH]c3c2)n1 [GSK2206003]	0
CCn1cnc2c(NCc3ccccc3)ncnc21 [SKF-96418]	17
COc1cccc(-c2nc(-c3ccccc3)[nH]c2-c2ccncc2)c1 [SB-610250]	34
